Protocol summary: Pharmacokinetics in male hamsters, plasma and lung, IV 3 mg/kg or PO 30 mg/kg
Conditions used: male, hamster, in vivo, po, 30 mg/kg, Ratio (Lung/Plasma), Mean, Compound P3 PO 30 mg/kg, 4 h
Measurement label: Kp at 4 h
Give the value as a plain number.

Using the record for O=C(Nc1ccc([N+](=O)[O-])cc1Cl)c1cc(Cl)ccc1OC(=O)N1CCNCC1 [Compound P3] , report its Kp at 4 h. 129

###

Protocol summary: in vivo
Conditions used: C57BL/6, mouse, po, 50 mg/kg, Cmax, Compound P3 in plasma, PO 50 mg/kg (PO_A), C57BL/6 mice, individual mice
Measurement label: Cmax (ng/mL)
// note: answer is a bare numeric in ng/mL

What value of measured Cmax is listed for `O=C(Nc1ccc([N+](=O)[O-])cc1Cl)c1cc(Cl)ccc1OC(=O)N1CCNCC1` ? 1140
